Molecular target: human P2X7 (Homo sapiens (Human))
Sequence (Q99572 whole entry): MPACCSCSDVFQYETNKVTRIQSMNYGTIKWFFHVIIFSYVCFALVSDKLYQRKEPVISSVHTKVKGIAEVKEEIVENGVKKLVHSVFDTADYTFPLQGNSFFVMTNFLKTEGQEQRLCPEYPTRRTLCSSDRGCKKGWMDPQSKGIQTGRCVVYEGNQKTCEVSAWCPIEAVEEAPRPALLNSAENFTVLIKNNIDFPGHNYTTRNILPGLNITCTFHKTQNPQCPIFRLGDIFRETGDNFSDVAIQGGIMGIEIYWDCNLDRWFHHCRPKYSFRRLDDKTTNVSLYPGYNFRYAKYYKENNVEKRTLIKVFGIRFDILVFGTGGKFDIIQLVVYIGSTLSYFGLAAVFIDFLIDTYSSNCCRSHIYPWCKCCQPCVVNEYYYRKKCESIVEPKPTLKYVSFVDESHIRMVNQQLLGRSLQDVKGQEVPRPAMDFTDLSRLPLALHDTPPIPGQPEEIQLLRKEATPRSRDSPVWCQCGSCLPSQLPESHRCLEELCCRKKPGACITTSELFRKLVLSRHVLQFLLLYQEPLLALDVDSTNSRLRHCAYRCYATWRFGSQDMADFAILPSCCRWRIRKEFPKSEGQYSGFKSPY
Test: Human P2X7 functional assay (Ca2+ influx, Fluo-4, FDSS)
Settings: antagonistic activity with respect to the human P2X7 receptor; BzATP final concentration 80 microM
pIC50: −log10 of the molar value.
Below, each entry is listed alongside its reported pIC50.

- C[C@]1(O)CC[C@@](F)(C(=O)NCc2ccc(F)cc2Cl)c2cccnc21: > 7.30
- CNCC1(O)CCC(F)(C(=O)NCc2cccc(C(F)(F)F)c2Cl)c2cccnc21 (centres unmarked): > 7.30
- O=C(NCc1ccc(F)c(F)c1F)[C@]1(F)CC[C@H](OCCO)c2ncccc21: > 7.30
- O=C(NCc1ccc(F)cc1Cl)[C@]1(F)CC[C@](O)(CO)c2ncccc21: 6.00 to 6.52
- C[C@@H](NC(=O)[C@]1(F)CC[C@](C)(O)c2ncccc21)c1ccc(F)cc1Cl: > 7.30
- CO[C@@H]1CC[C@@](F)(C(=O)NCc2c(Cl)cc(Cl)cc2CO)c2cccnc21: > 7.30

"O=C1CO[C@]2(CC[C@@](F)(C(=O)NCc3ccc(Cl)cc3Cl)c3cccnc32)CN1" has a reported pIC50 of > 7.30

The reported pIC50 of the compound CN(CCO)C[C@]1(O)CC[C@@](F)(C(=O)NCc2ccc(F)cc2Cl)c2cccnc21 (relative stereo) was > 7.30

Documented pIC50 of "O=C(NCc1cccc(C(F)(F)F)c1Cl)[C@]1(F)CC[C@@H](O)c2ncccc21" : > 7.30

Value of pIC50 reported for the compound "O=C(NCc1ccc(F)cc1F)[C@]1(F)CC[C@H](OCCO)c2ncccc21" is 7.00 to 7.30

Record summary for "O=C(NCc1ccc(Cl)c(F)c1F)[C@]1(F)CC[C@@](O)(CO)c2ncccc21" : reported pIC50 = 6.52 to 7.00

What the record says about "O=C(NCc1c(Cl)cc(F)cc1CO)[C@]1(F)CC[C@@](O)(CO)c2ncccc21" : pIC50 is > 7.30

get_value(item= "O=C(NCc1ccc(F)cc1F)[C@]1(F)CC[C@@](O)(CO)c2ncccc21" , readout=pIC50) returns 6.00 to 6.52

Measured pIC50 of "Cc1ccc(F)c(CNC(=O)[C@]2(F)CC[C@H](O)c3ncccc32)c1Cl" : > 7.30

# pIC50 of O=C(NCc1ccc(Cl)cc1Cl)C1(F)CCC(O)(CO)c2ncccc21 (centres unmarked) = > 7.30

Notebook: "CO[C@H]1CC[C@@](F)(C(=O)NCc2c(F)cc(F)cc2F)c2cccnc21" , pIC50 read as 7.00 to 7.30

response.value for "C[C@@H](NC(=O)[C@]1(F)CC[C@@](O)(CO)c2ncccc21)c1ccc(Cl)cc1Cl" (field: pIC50) = > 7.30
